Recorded measurements of half-life, one per entry
assay: Mouse liver microsomal stability of compound in microsomal protein, PBS buffer pH 7.4, NADPH, glucose-6-phosphate and glucose-6-phosphate dehydrogenase media. Aliquotes were taken at 5 time points and after stopping the reaction, supernatants were analyzed using HPLC coupled with a tandem mass spectrometer. The elimination constant, half-life, and intrinsic clearance are determined as results using linear regression analysis. The assay has been performed by Enamine biological services, Bienta Ltd.The protocol is publicly available: dx.doi.org/10.17504/protocols.io.5qpvokdb9l4o/v1; assay type: ADME, microsomes, Microsome; details: liver microsomes
The answer is to be given in min; state only the numeric part.

{"columns": ["compound-structure-string", "readout-kind", "units-label", "observed-measurement"],
 "data": [
  ["CCNC(=O)c1cc2c(N[C@H](c3ccc4c(c3)OCCO4)C(C)C)ncnc2[nH]1", "half-life", "min", 34.6],
  ["CNCc1cc(-c2cc3c(N[C@H](c4ccc5c(c4)S(=O)(=O)CCC5)C(C)C)ncnc3[nH]2)co1", "half-life", "min", 41.8],
  ["CC(C)[C@@H](Nc1ncnc2[nH]c(-c3cncc(S(C)(=O)=O)c3)cc12)c1ccc2c(c1)S(=O)(=O)CCC2", "half-life", "min", 6.1],
  ["CC(C)[C@@H](Nc1ncnc2[nH]ccc12)c1ccc2c(c1)NC(=O)CO2", "half-life", "min", 21.4],
  ["CC(C)(C)[C@H](Nc1ncnc2[nH]c(-c3cnn(CC(N)=O)c3)cc12)c1ccc2c(c1)OCCO2", "half-life", "min", 38.3]
]}

Return reported half-life; argument: CC(C)[C@@H](Nc1ncnc2[nH]c(-c3cnn(C)c3C#N)cc12)c1ccc2c(n1)NC(=O)CO2
11.5

Return reported half-life; argument: CC(C)[C@@H](Nc1ncnc2[nH]c(-c3cnn(C)c3)cc12)c1ccc2c(c1)S(=O)(=O)CCC2
10.8

Return reported half-life; argument: C[C@@H](C(=O)O)[C@@H](NC(=O)c1ncnc2[nH]ccc12)c1ccc(Br)cc1
433

====

Recorded measurements of microsomal CLint, one per entry
test: Human liver microsomal stability of compound in microsomal protein, PBS buffer pH 7.4, NADPH, glucose-6-phosphate and glucose-6-phosphate dehydrogenase media. Aliquotes were taken at 5 time points and after stopping the reaction, supernatants were analyzed using HPLC coupled with a tandem mass spectrometer. The elimination constant, half-life, and intrinsic clearance are determined as results using linear regression analysis. The assay has been performed by Enamine biological services, Bienta Ltd.The protocol is publicly available: dx.doi.org/10.17504/protocols.io.5qpvokdb9l4o/v1; assay type: ADME, microsomes, Microsome; conditions: liver microsomes

{"columns": ["molecule", "observed-measurement"],
 "data": [
  ["CC(C)[C@H](Nc1ncnc2[nH]c(-c3cnn(CC(N)=O)c3)cc12)c1ccc2c(c1)S(=O)(=O)CCC2", "240 µL/min/mg"],
  ["CC(C)[C@@H](Nc1ncnc2[nH]c(-c3cnn(C)c3C#N)cc12)c1ccc2c(c1)NC(=O)CO2", "100 µL/min/mg"],
  ["CNC(=O)c1cc2c(N[C@@H](c3ccc4c(c3)OCCO4)C(C)C)ncnc2[nH]1", "79 µL/min/mg"],
  ["COc1ccc2c(c1)CCN(c1ncnc3[nH]ccc13)[C@H]2C(C)C", "60 µL/min/mg"]
]}

Return reported microsomal CLint; argument: CCNC(=O)c1cc2c(N[C@@H](c3ccc4c(c3)S(=O)(=O)CCO4)C(C)C)ncnc2[nH]1
64 µL/min/mg

Return reported microsomal CLint; argument: CC(C)[C@@H](Nc1ncnc2[nH]c(-c3cnn(CC(=O)N(C)C)c3)cc12)c1ccc2c(c1)OCCO2
142 µL/min/mg

Return reported microsomal CLint; argument: CNC(=O)c1c[nH]c2ncnc(N[C@@H](c3ccc4c(c3)S(=O)(=O)CCC4)C(C)C)c12
131 µL/min/mg

Return reported microsomal CLint; argument: Cn1ncc(-c2cc3c(N[C@@H](c4ccc5c(c4)OCCO5)C(C)(C)C)ncnc3[nH]2)c1C#N
85 µL/min/mg

Return reported microsomal CLint; argument: CC(C)(C)[C@@H](Nc1ncnc2[nH]c(-c3cnn(CC(N)=O)c3)cc12)c1ccc2c(n1)OCCO2
36 µL/min/mg

Return reported microsomal CLint; argument: CC(C)[C@H](Nc1ncnc2[nH]c(-c3cnn(CC(N)=O)c3)cc12)c1ccc2c(c1)OCCO2
47 µL/min/mg

Return reported microsomal CLint; argument: CC(C)[C@@H](Nc1ncnc2[nH]c(-c3ccc4nnn(C)c4c3)cc12)c1ccc2c(c1)S(=O)(=O)CCC2
752 µL/min/mg

Return reported microsomal CLint; argument: CC(C)[C@H](Nc1ncnc2[nH]c(-c3cnn(C)c3C#N)cc12)c1ccc2c(n1)OCCO2
17 µL/min/mg

Return reported microsomal CLint; argument: CC(C)[C@H](Nc1ncnc2[nH]c(-c3cnn(C)c3C#N)cc12)c1ccc2c(c1)OCCO2
706 µL/min/mg

Return reported microsomal CLint; argument: CC(C)[C@@H](Nc1ncnc2[nH]cc(C(N)=O)c12)c1ccc2c(c1)OCCO2
143 µL/min/mg

Return reported microsomal CLint; argument: CC(C)[C@H](Nc1ncnc2[nH]c(-c3cnn(C)c3C#N)cc12)c1ccc2c(c1)NC(=O)CO2
115 µL/min/mg

Return reported microsomal CLint; argument: COc1ccc([C@@H](NC(=O)c2[nH]cnc3nccc2-3)C(C)c2nnn[nH]2)cc1 (stereo partly drawn)
2 µL/min/mg

Return reported microsomal CLint; argument: COc1ccc([C@@H](CC(=O)O)NC(=O)c2ncnc3[nH]ccc23)cc1
7 µL/min/mg

Return reported microsomal CLint; argument: CNC(=O)c1cccc(-c2cc3c(N[C@@H](c4ccc5c(c4)S(=O)(=O)CCC5)C(C)C)ncnc3[nH]2)c1
455 µL/min/mg
